protocolSummary: inhibition of 3D7 malaria parasite growth – strain 3D7 (AID 2306);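 note: 0% = DMSO wells and 100% = chloroquine plus artemisinin control wells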
testConditions: P. falciparum 3D7 erythrocytic growth, LDH absorbance, 72 h; at 2 µM; stronger effect = higher value
measurementName: growth inhibition (%)
I only need the number, in %, no unit after it.

A selection of reference data follows.
In [3]: df
Out[3]:
                             compoundsmiles    measurementname  reported
0     Nc1nc(N)c2c(Oc3ccc(Cl)c(Cl)c3)cccc2n1  growth inhibition        95
1  COc1ccc2c(c1CCNCCCCNCCc1c(OC)ccc3c1CCCC3)CCCC2  growth inhibition       101
2  FC(F)(F)c1cccc(CCNc2nccc(NCc3ccccc3Cl)n2)c1  growth inhibition        89

Now consider a different compound.
Give the reported value of growth inhibition for this record: O=C(Nc1cccc(CN2CCCN(Cc3ccc4c(c3)OCO4)CC2)c1)c1ccc2ccccc2c1
86

###

protocolSummary: inhibitors of mitochondrial cytochrome c release, biochemical, purified mitochondria (AID 1603);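 note: mouse liver mitochondria challenged with calcium chloride; signal normalized to the plate average as 100%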
testConditions: stronger effect = lower value
Lab note: anything with cytochrome c release ratio below 1 is marked 1.0; values at 1 or higher are marked 0.0.

In [3]: df
Out[3]:
                                   compound  assignedclass
0  CC12CCC3C(=CCc4cc(O)ccc43)C1CCC2=O (configuration not stated)            1.0
1  CC(C)CC(NC(=O)CCN)C(=O)O (configuration not stated)            0.0
2       CC(C)Oc1ccc2c(=O)cc(-c3ccccc3)oc2c1            1.0
3  CC(=O)OCC(=O)[C@@]12OC3(CCCC3)O[C@@H]1CC1C3CCC4=CC(=O)C=C[C@]4(C)[C@@]3(F)[C@@H](O)C[C@@]12C (some centres not stated)            1.0
4  CC(COc1ccccc1)NC(C)[C@H](O)c1ccc(O)cc1 (some centres not stated)            1.0
5  C[C@H](CCC(=O)O)[C@H]1CCC2C3C(=O)CC4CC(=O)CC[C@]4(C)C3CC(=O)[C@@]21C (some centres not stated)            0.0

Attention now turns to another entry.
Decide: cytochrome c release ratio of COc1ccc(C2Sc3ccccc3N(CCN(C)C)C(=O)C2OC(C)=O)cc1 (configuration not stated) strictly below 1?
0.0

###

testTarget: L-lactate dehydrogenase (Plasmodium falciparum (isolate CDC / Honduras))
protocolSummary: PfLDH activity inhibition – cell lysate, 3D7 strain, counter-screen for P. falciparum growth inhibition project (AID 2304);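 note: 0% = vehicle and 100% = reference inhibitor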
testConditions: P. falciparum 3D7 crude extract, LDH APAD/NBT absorbance; at 2 µM; stronger effect = higher value
Calls of active or inactive are those of the source. No rule for the calls is given here.
measurementName: inhibition

In [3]: df
Out[3]:
                                   compound        reported
0  COc1ccc2nc(-c3cc(-c4ccc(NC(C)=O)cc4)cnc3N)[nH]c2c1  -1% (inactive)

Give the reported value of inhibition for this record: CC1(C)N=C(N)N=C(N)N1OCCCO
-2% (inactive)

Give the reported value of inhibition for this record: COc1ccc(-c2cnn3ccc(Nc4cc(OC)c(OC)c(OC)c4)nc23)cc1OC
-4% (inactive)

Give the reported value of inhibition for this record: Cc1cc(Nc2nc(Nc3cccc(Cl)c3)nc3ccccc23)n[nH]1
-2% (inactive)

Give the reported value of inhibition for this record: NCC(=O)NC12CC3CC(CC(C3)C1)C2
-2% (inactive)

Give the reported value of inhibition for this record: CS(=O)(=O)CCNC(=O)c1ccc(-c2cc3c(Nc4ccc5c(cnn5Cc5ccccc5)c4)ncnc3cn2)o1
-1% (inactive)

Give the reported value of inhibition for this record: Cc1cccc(-c2cc3cc(Nc4ccnc5cc(-c6nccs6)ccc45)ccc3[nH]2)c1
1% (inactive)

Give the reported value of inhibition for this record: CCOC(=O)C(NC(=O)Cc1ccccc1)C(C)C (stereo not drawn)
4% (inactive)

###

System: F380Y/beta4
protocolSummary: modulators of BK channel variants, profiling panel, selectivity assay, cell-based, U2OS BacMam, thallium flux, beta subunits (AID 1259406);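 note: initial slope of Thallos dye fluorescence rise after thallium is added; log ratio against the mean of 0.3% DMSO vehicle wells on the same plate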
testConditions: at 30 µM
Active and inactive are the calls of the source.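 How the source made its calls: active means thallium flux through the channel raised or lowered by more than 3 SD from vehicle-only wells, actives on both sides; inactive means the rest.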
Measured log fold change Tl+ flux, listed per entry.

compound	log fold change Tl+ flux
N=c1c(C(N)=O)cc2c(=O)n3ccccc3nc2n1Cc1ccco1	-0.019 (inactive)

Now consider a different compound.
Give the reported value of log fold change Tl+ flux for this record: O=C(CN1CCOCC1)Nc1ccccc1Sc1nccc(C(F)(F)F)n1
-0.00275 (inactive)

###

testTarget: L-lactate dehydrogenase (Plasmodium falciparum (isolate CDC / Honduras)) (UniProt Q27743)
Sequence (Q27743 whole entry, looked up): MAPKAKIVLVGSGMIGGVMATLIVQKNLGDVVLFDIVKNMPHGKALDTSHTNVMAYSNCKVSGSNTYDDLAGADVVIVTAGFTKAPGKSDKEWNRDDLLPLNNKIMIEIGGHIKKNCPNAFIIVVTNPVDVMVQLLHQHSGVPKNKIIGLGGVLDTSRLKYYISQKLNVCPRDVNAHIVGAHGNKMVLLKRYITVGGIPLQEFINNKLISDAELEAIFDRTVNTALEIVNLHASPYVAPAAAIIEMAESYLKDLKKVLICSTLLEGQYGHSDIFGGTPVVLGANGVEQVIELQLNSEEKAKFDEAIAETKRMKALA
protocolSummary: PfLDH activity inhibition – cell lysate, 3D7 strain, counter-screen for P. falciparum growth inhibition project (AID 2304);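 note: 0% = vehicle and 100% = reference inhibitor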
testConditions: P. falciparum 3D7 crude extract, LDH APAD/NBT absorbance; at 2 µM; stronger effect = higher value
The source made the active and inactive calls. The rule behind the calls is not given here.
Measured inhibition, listed per entry.

A selection of reference data follows.
>>> df
                                   compound        reported
0  CCCCOc1cc(C)nc2ccc(NC(=O)COCC(=O)Nc3ccc4nc(C)cc(OCCCC)c4c3)cc12  -3% (inactive)
1  O=C(c1ccccc1)N1CCC[C@](CCCN2CCN(c3ccccc3O)CC2)(c2ccc(Cl)c(Cl)c2)C1  -3% (inactive)
2  C[C@@H](CC1CCCCC1)OC(=O)N(C)[C@@H]1CCN(C#N)C1   3% (inactive)
3  Cc1nc(-c2cccc(Nc3ccnc4cc(-c5nccs5)ccc34)c2)no1  -2% (inactive)
4  CCNc1cc(C(=O)N[C@@H](Cc2ccccc2)[C@H](O)CNCc2cc(OC)cc(OC)c2)cc(N2CCCS2(=O)=O)c1  -2% (inactive)
5  CCOC(=O)N(C)/N=C/[C@H](CCc1ccccc1)NC(=O)[C@H](CC(C)C)NC(=O)c1cc2cccc(OC)c2o1   1% (inactive)
6  CCN1CCC(N(Cc2ccc(-c3ccc(C(F)(F)F)cc3)cc2)C(=O)Cn2c(SCc3ccc(F)cc3)nc(=O)c3c2CCC3)CC1   2% (inactive)
7  COc1ccc(C2c3ccccc3-c3nc(N)nc(N)c3C2C)cc1 (stereo not drawn)   3% (inactive)

Give the reported value of inhibition for this record: COc1cccc(C(=O)Nc2ccc(Nc3nc(C)cc(N(C)C)n3)cc2)c1OC
-3% (inactive)

Give the reported value of inhibition for this record: O=C(NCCN1CCCCC1)c1ccc(Nc2nccc(Nc3ccc(Oc4ccccc4)cc3)n2)cc1
-2% (inactive)

Give the reported value of inhibition for this record: Cc1ccc(C(=O)N2CCN(Cc3nccs3)CC2)cc1
0% (inactive)

Give the reported value of inhibition for this record: COc1ccc2c(=O)c(Br)c(C)[nH]c2c1
-8% (inactive)

Give the reported value of inhibition for this record: N#Cc1ccc2c(c1)CN(CCC1CCC(NC(=O)c3cc4cc(OC(F)(F)F)ccc4[nH]3)CC1)CC2 (stereo not drawn)
4% (inactive)

###

protocolSummary: sensitizers of A549 cells to miR-34 induction, primary screen, imaging, A549 dox-inducible miR-34, nuclei and caspase counts (AID 1347080)
testConditions: A549 miR-34 inducible, Hoechst nuclei count, 48 h; measured here: total cells with miR-34 induction; stronger effect = lower value
Lab note: anything with cell count below 8000 is marked yes (1); values at 8000 or higher are marked no (0).

molecule	assignedClass
CCOC(=O)C1(CCCCCCOc2ccc(Cl)cc2)CO1 (centres undefined)	yes (1)
O=c1[nH]c(=O)n(C2C[C@@H](O)[C@@H](CO)O2)cc1F (some centres undefined)	yes (1)
CC1CC2C3CCC4=CC(=O)C=C[C@]4(C)[C@@]3(F)[C@@H](O)C[C@]2(C)[C@@]1(O)C(=O)CO (some centres undefined)	yes (1)
Cc1ccccc1C(=O)c1ccc(Nc2ccc(Br)cc2N)cc1Cl	yes (1)
CCOC(=O)[C@@H](CCc1ccccc1)N[C@@H](C)C(=O)N1CCC[C@H]1C(=O)O	no (0)

Attention now turns to another entry.
Decide: cell count of Nc1nccc(-c2ccc3noc(-c4ccc(Cl)cc4)c3c2)n1 strictly below 8000?
yes (1)

###

testTarget: L-lactate dehydrogenase (Plasmodium falciparum (isolate CDC / Honduras))
protocolSummary: PfLDH activity inhibition – cell lysate, 3D7 strain, counter-screen for P. falciparum growth inhibition project (AID 2304);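 note: 0% = vehicle and 100% = reference inhibitor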
testConditions: P. falciparum 3D7 crude extract, LDH APAD/NBT absorbance; at 2 µM; stronger effect = higher value
measurementName: inhibition (%)
I only need the number, in %, no unit after it.

>>> df
                                   molecule                                testtarget  reported
0  Cc1cccc2[nH]c(-c3cc(-c4cn[nH]c4)cnc3N)nc12  L-lactate dehydrogenase (Plasmodium falciparum (isolate CDC / Honduras))         0
1  O=C(C=Cc1cccc(F)c1)NC1CCC(CCN2CCc3ccc(-c4cnccn4)cc3CC2)CC1 (centres undefined)  L-lactate dehydrogenase (Plasmodium falciparum (isolate CDC / Honduras))        -1
2  CN1CCN(c2nsc3ccc(-c4ccc(NC(=O)Nc5ccccc5)cc4)cc23)CC1  L-lactate dehydrogenase (Plasmodium falciparum (isolate CDC / Honduras))        -1

Report value only: inhibition, L-lactate dehydrogenase (Plasmodium falciparum (isolate CDC / Honduras)), CC(C)(NCc1ncc[nH]1)c1nc(-c2ccc(Cl)c(O)c2)c(-c2ccncc2)[nH]1
3

Report value only: inhibition, L-lactate dehydrogenase (Plasmodium falciparum (isolate CDC / Honduras)), O=C(Nc1cccc(C(F)(F)F)c1)c1ccc(S(=O)(=O)NC2CCN(CC3CCCCC3)CC2)cc1
0

Report value only: inhibition, L-lactate dehydrogenase (Plasmodium falciparum (isolate CDC / Honduras)), O=[N+]([O-])c1ccc(C=NNc2nc(Nc3ccccc3)nc(Nc3ccccc3)n2)o1
-4

Report value only: inhibition, L-lactate dehydrogenase (Plasmodium falciparum (isolate CDC / Honduras)), CCOc1cc(C)c(C2CCN(CCCCNC(=O)c3ccc(NC(=O)c4ccc(Cl)cc4)cc3)CC2)cc1C
1

Report value only: inhibition, L-lactate dehydrogenase (Plasmodium falciparum (isolate CDC / Honduras)), NC1=NC(c2ccccc2)(c2ccccc2)C(=O)N1Cc1ccccc1Br
4

Report value only: inhibition, L-lactate dehydrogenase (Plasmodium falciparum (isolate CDC / Honduras)), Nc1ncc(-c2cccc(F)c2)cc1-c1nc2ccc(F)cc2[nH]1
-3

Report value only: inhibition, L-lactate dehydrogenase (Plasmodium falciparum (isolate CDC / Honduras)), CCc1sc(N2CCN(C)CC2)nc1C(=O)NCCc1ccc(Cl)c(Cl)c1
5

Report value only: inhibition, L-lactate dehydrogenase (Plasmodium falciparum (isolate CDC / Honduras)), Cc1cc(N2CCCC2)nc(Nc2ccc(NC(=O)C3CCCC3)cc2)n1
1

Report value only: inhibition, L-lactate dehydrogenase (Plasmodium falciparum (isolate CDC / Honduras)), Cc1cc(F)ccc1-c1nc(N(C)CCN(C)C(=O)N(C)c2ccccc2)nc2c1ccc(=O)n2-c1c(F)cccc1F
2
